From: paper PMC10786891

Biological target: T1, EsCas13d, nuclease-dead (Eubacterium siraeum, UniProt B0MS50, R295A;H300A;R849A;H854A)
T1 sequence: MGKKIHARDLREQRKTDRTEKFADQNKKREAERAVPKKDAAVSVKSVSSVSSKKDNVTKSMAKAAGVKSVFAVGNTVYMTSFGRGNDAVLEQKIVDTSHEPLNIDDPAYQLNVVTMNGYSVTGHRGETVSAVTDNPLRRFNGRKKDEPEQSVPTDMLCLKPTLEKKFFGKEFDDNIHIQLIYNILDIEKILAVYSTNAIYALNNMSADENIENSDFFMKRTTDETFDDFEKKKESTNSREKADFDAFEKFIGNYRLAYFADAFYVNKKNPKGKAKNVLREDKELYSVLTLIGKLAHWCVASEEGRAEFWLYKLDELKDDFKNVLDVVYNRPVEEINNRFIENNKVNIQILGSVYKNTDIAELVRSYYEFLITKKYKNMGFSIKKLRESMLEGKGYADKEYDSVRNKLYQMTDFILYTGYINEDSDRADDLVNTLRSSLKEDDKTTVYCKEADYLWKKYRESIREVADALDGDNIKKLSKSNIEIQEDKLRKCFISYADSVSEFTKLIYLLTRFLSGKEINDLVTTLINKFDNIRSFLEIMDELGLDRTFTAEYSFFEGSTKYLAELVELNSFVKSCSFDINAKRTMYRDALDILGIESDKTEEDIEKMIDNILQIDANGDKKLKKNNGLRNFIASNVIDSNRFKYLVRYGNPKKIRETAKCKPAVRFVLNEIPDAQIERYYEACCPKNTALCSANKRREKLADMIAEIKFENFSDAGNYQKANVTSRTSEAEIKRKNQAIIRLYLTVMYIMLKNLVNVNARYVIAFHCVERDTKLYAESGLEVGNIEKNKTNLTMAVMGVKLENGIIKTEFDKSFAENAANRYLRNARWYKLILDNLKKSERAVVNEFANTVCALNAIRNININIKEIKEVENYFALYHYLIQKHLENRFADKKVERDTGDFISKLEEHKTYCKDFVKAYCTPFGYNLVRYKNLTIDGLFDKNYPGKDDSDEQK
Assay: crRNA (strand 1, pre-loaded); Mg2+; 40 mM Tris-HCl pH 7.5, 150 mM NaCl, 6 mM MgCl2, 1 mM DTT, 0.1% Tween-20, 0.2 mg/ml BSA; 25 C; 10 min per concentration, then washed
Conditions: tags: His6-TwinStrep-SUMO cleaved; N-terminal SNAP kept (SNAP-Surface 488); label: 3' end held by stalled T7 RNA polymerase
pKd: −log10 of the molar value.
MEASURE: pKd

[[record]]
binder = "target 3 insC 3' of 7,insA 3' of 4 (mixed) RNA 1: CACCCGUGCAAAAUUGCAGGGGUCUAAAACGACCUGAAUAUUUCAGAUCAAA RNA 2: GGGAAUGGAUCCACAUCUACGAAUUCGUUUUUGAUCUGAAAUAUUCCAGAGUCUGCAGAUCGGAAGAGCACACGU"
observed = 7.01

[[record]]
binder = "target 2 MT 5'PFS CGC 3'PFS ACA (mixed) RNA 1: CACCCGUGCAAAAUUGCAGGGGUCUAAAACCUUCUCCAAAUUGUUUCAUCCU RNA 2: GGGAAUGGAUCCACAUCUACGAAUUCCGCAGGAUGAAACAAUUUGGAGAAGACAAGAUCGGAAGAGCACACGU"
observed = 7.96

